Tested on: Escherichia coli TOP10
Experiment description: shrunken log2 fold change of peptide-encoding DNA abundance (4.5 h post-induction vs induction); higher = less antimicrobial activity (less host growth inhibition)
Run parameters: time post-induction: 4.5 h; library: site-saturation at positions 5, 18, 19, 20
Can you tell me shrunken log2 fold change for the items I'm about to list?
Numbers only.

Some sequences with recorded shrunken log2 fold change:
[[record]]
residue_sequence = "RRIRMRPPRLPRPRPRPYAWPRP"
target_of_assay = "Escherichia coli TOP10"
value_measured = -0.107

[[record]]
residue_sequence = "RRIRQRPPRLPRPRPRPWYPPRP"
target_of_assay = "Escherichia coli TOP10"
value_measured = -0.278

[[record]]
residue_sequence = "RRIRTRPPRLPRPRPRPEFFPRP"
target_of_assay = "Escherichia coli TOP10"
value_measured = -0.0853


Would you mind giving shrunken log2 fold change for every sequence in the list below?
1. RRIRNRPPRLPRPRPRPMPNPRP
2. RRIRSRPPRLPRPRPRPEFFPRP

1. -0.0406
2. -0.0464

---

Test system: Escherichia coli TOP10
Experiment description: shrunken log2 fold change of peptide-encoding DNA abundance (4.5 h post-induction vs induction); higher = less antimicrobial activity (less host growth inhibition)
Run parameters: time post-induction: 4.5 h; library: site-saturation at positions 5, 18, 19, 20
The label depends only on shrunken log2 fold change: True if it is at least 0.2, False if it is smaller.

Would you please look over these solved cases?
[[record]]
residue_sequence = "RRIRKRPPRLPRPRPRPSFWPRP"
label_value = "True"

[[record]]
residue_sequence = "RRIRSRPPRLPRPRPRPDIQPRP"
label_value = "False"

[[record]]
residue_sequence = "RRIRNRPPRLPRPRPRPPVRPRP"
label_value = "True"

[[record]]
residue_sequence = "RRIRHRPPRLPRPRPRPNELPRP"
label_value = "False"


Record RRIRQRPPRLPRPRPRPWVDPRP ; criterion: shrunken log2 fold change no lower than 0.2. Met? False

Record RRIRDRPPRLPRPRPRPARSPRP ; criterion: shrunken log2 fold change no lower than 0.2. Met? False

Record RRIRIRPPRLPRPRPRPIMKPRP ; criterion: shrunken log2 fold change no lower than 0.2. Met? False

Record RRIRARPPRLPRPRPRPIVTPRP ; criterion: shrunken log2 fold change no lower than 0.2. Met? False

---

Tested on: Escherichia coli TOP10
Experiment description: shrunken log2 fold change of peptide-encoding DNA abundance (4.5 h post-induction vs induction); higher = less antimicrobial activity (less host growth inhibition)
Run parameters: time post-induction: 4.5 h; library: site-saturation at positions 5, 18, 19, 20
Recorded metric: shrunken log2 fold change

Some sequences with recorded shrunken log2 fold change:
[[record]]
residue_sequence = "RRIRPRPPRLPRPRPRPRIEPRP"
target_of_assay = "Escherichia coli TOP10"
value_measured = 0.175

[[record]]
residue_sequence = "RRIRCRPPRLPRPRPRPENQPRP"
target_of_assay = "Escherichia coli TOP10"
value_measured = -0.0366

[[record]]
residue_sequence = "RRIRTRPPRLPRPRPRPNINPRP"
target_of_assay = "Escherichia coli TOP10"
value_measured = -0.812

[[record]]
residue_sequence = "RRIRQRPPRLPRPRPRPCESPRP"
target_of_assay = "Escherichia coli TOP10"
value_measured = -0.0107


Would you mind giving shrunken log2 fold change for every sequence in the list below?
1. RRIRDRPPRLPRPRPRPELCPRP
2. RRIRKRPPRLPRPRPRPFAVPRP
3. RRIRTRPPRLPRPRPRPRFLPRP
4. RRIRERPPRLPRPRPRPYDFPRP
5. RRIRIRPPRLPRPRPRPCEQPRP
6. RRIRARPPRLPRPRPRPRTRPRP
7. RRIRARPPRLPRPRPRPFQRPRP

[-0.0337, -0.14, 0.903, -0.0231, 0.0927, 1.05, -0.0439]

Would you mind giving shrunken log2 fold change for every sequence in the list below?
1. RRIRYRPPRLPRPRPRPMAFPRP
2. RRIRPRPPRLPRPRPRPQVMPRP
3. RRIRFRPPRLPRPRPRPTCVPRP
4. RRIRGRPPRLPRPRPRPIDAPRP
5. RRIRHRPPRLPRPRPRPTQIPRP

[-0.557, -0.286, -0.0732, 0.674, 0.51]

---

Test system: Escherichia coli TOP10
Experiment description: shrunken log2 fold change of peptide-encoding DNA abundance (4.5 h post-induction vs induction); higher = less antimicrobial activity (less host growth inhibition)
Run parameters: time post-induction: 4.5 h; library: site-saturation at positions 5, 18, 19, 20
Entry class follows shrunken log2 fold change: low band = under -0.1, middle band = from -0.1 up to 0.05, high band = 0.05 and over

[[record]]
residue_sequence = "RRIRNRPPRLPRPRPRPRTCPRP"
label_value = "low band"

[[record]]
residue_sequence = "RRIRCRPPRLPRPRPRPYQIPRP"
label_value = "low band"

[[record]]
residue_sequence = "RRIRPRPPRLPRPRPRPDLVPRP"
label_value = "middle band"

[[record]]
residue_sequence = "RRIRDRPPRLPRPRPRPYATPRP"
label_value = "middle band"

[[record]]
residue_sequence = "RRIRWRPPRLPRPRPRPQMAPRP"
label_value = "high band"


Form: Item = RRIRKRPPRLPRPRPRPLLAPRP ; Class = ? high band

Form: Item = RRIRNRPPRLPRPRPRPKTAPRP ; Class = ? low band

Form: Item = RRIRMRPPRLPRPRPRPVVWPRP ; Class = ? high band

Form: Item = RRIRHRPPRLPRPRPRPIYCPRP ; Class = ? middle band

Form: Item = RRIRRRPPRLPRPRPRPTHRPRP ; Class = ? high band

Form: Item = RRIRQRPPRLPRPRPRPAWWPRP ; Class = ? high band

---

Test system: Escherichia coli TOP10
Experiment description: shrunken log2 fold change of peptide-encoding DNA abundance (4.5 h post-induction vs induction); higher = less antimicrobial activity (less host growth inhibition)
Run parameters: time post-induction: 4.5 h; library: site-saturation at positions 5, 18, 19, 20
Recorded metric: shrunken log2 fold change
Answers are plain numbers.

Some sequences with recorded shrunken log2 fold change:
[[record]]
residue_sequence = "RRIRYRPPRLPRPRPRPFMVPRP"
value_measured = -1.05

[[record]]
residue_sequence = "RRIRQRPPRLPRPRPRPTTPPRP"
value_measured = 0.402

[[record]]
residue_sequence = "RRIRCRPPRLPRPRPRPWDVPRP"
value_measured = 0.0309


Would you mind giving shrunken log2 fold change for every sequence in the list below?
1. RRIRSRPPRLPRPRPRPPPKPRP
2. RRIRERPPRLPRPRPRPYRMPRP
3. RRIRQRPPRLPRPRPRPSHEPRP
4. RRIRSRPPRLPRPRPRPTQNPRP

1. 0.708
2. -0.113
3. -0.0209
4. 0.375

---

Test system: Escherichia coli TOP10
Experiment description: shrunken log2 fold change of peptide-encoding DNA abundance (4.5 h post-induction vs induction); higher = less antimicrobial activity (less host growth inhibition)
Run parameters: time post-induction: 4.5 h; library: site-saturation at positions 5, 18, 19, 20
The label depends only on shrunken log2 fold change: Satisfied if it is at least -0.009, Not satisfied if it is smaller.

Would you please look over these solved cases?
[[record]]
residue_sequence = "RRIRVRPPRLPRPRPRPCMYPRP"
label_value = "Not satisfied"

[[record]]
residue_sequence = "RRIRGRPPRLPRPRPRPGFRPRP"
label_value = "Satisfied"

[[record]]
residue_sequence = "RRIRFRPPRLPRPRPRPRPNPRP"
label_value = "Satisfied"


Record RRIRCRPPRLPRPRPRPLWTPRP ; criterion: shrunken log2 fold change no lower than -0.009. Met? Satisfied

Record RRIRDRPPRLPRPRPRPRWIPRP ; criterion: shrunken log2 fold change no lower than -0.009. Met? Not satisfied

Record RRIRCRPPRLPRPRPRPCSDPRP ; criterion: shrunken log2 fold change no lower than -0.009. Met? Not satisfied

Record RRIRARPPRLPRPRPRPIDHPRP ; criterion: shrunken log2 fold change no lower than -0.009. Met? Satisfied

Record RRIRVRPPRLPRPRPRPCDDPRP ; criterion: shrunken log2 fold change no lower than -0.009. Met? Not satisfied

Record RRIRARPPRLPRPRPRPAWAPRP ; criterion: shrunken log2 fold change no lower than -0.009. Met? Satisfied

---

System: Escherichia coli TOP10;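 also: peptides expressed intracellularly from a pBAD plasmid library in pooled LB shake-flask culture, induced with 0.3% L-arabinose, DNA abundance read by NGS, three biological replicates, DESeq2 with apeglm shrinkage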
Experiment description: shrunken log2 fold change of peptide-encoding DNA abundance (4.5 h post-induction vs induction); higher = less antimicrobial activity (less host growth inhibition)
Run parameters: time post-induction: 4.5 h; library: site-saturation at positions 5, 18, 19, 20
The label depends only on shrunken log2 fold change: satisfied if it is at least -0.06, not satisfied if it is smaller.

Would you please look over these solved cases?
[[record]]
residue_sequence = "RRIRMRPPRLPRPRPRPFDKPRP"
label_value = "satisfied"

[[record]]
residue_sequence = "RRIRERPPRLPRPRPRPTYCPRP"
label_value = "satisfied"

[[record]]
residue_sequence = "RRIRRRPPRLPRPRPRPMSDPRP"
label_value = "satisfied"


Record RRIRSRPPRLPRPRPRPWQQPRP ; criterion: shrunken log2 fold change no lower than -0.06. Met? satisfied

Record RRIRDRPPRLPRPRPRPKSEPRP ; criterion: shrunken log2 fold change no lower than -0.06. Met? satisfied

Record RRIRIRPPRLPRPRPRPEQYPRP ; criterion: shrunken log2 fold change no lower than -0.06. Met? not satisfied
